Molecular target: SALL4 ZFC4 G921D (HT-SELEX) (Mus musculus, UniProt Q8BX22 870-940, G921D)
Sequence: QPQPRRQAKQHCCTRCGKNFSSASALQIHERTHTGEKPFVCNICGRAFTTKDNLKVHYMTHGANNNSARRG
Assay: HT-SELEX; high values mean tight binding
Details: protein: recombinant; vector His6-GST; dsDNA, one strand shown
propertyLabel: binding signal (fold-change vs cycle 0)
Give bare numbers, in fold-change vs cycle 0.

AATACG = 1.1

Please give binding signal, item by item, for the list that follows.
1. CTCTAA
2. CCGGAG
3. GAGATA
4. TATAGA
5. ATAGCC
6. AGAGGG

Completion:
[1.36, 0.352, 1.45, 1.81, 0.747, 0.655]

====

Molecular target: SALL4 ZFC4 WT (HT-SELEX) (Mus musculus, UniProt Q8BX22 870-940)
Sequence: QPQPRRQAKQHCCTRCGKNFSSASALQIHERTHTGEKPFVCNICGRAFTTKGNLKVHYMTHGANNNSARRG
Experiment: HT-SELEX; high values mean tight binding
Conditions: protein: recombinant; vector His6-GST; dsDNA, one strand shown
propertyLabel: binding signal (fold-change vs cycle 0)
Numbers only, in fold-change vs cycle 0.

Please give binding signal, item by item, for the list that follows.
1. ATTCTG
2. ATTAGA
3. ACCAAG
4. GAGTAA
5. CCTAGC
6. ATGGGG

Completion:
1: 1.27; 2: 2.12; 3: 0.816; 4: 1.45; 5: 0.4; 6: 0.486

====

What log10(binding signal) was measured for each of the following?
Molecular target: SALL4 ZFC4 R900W (HT-SELEX) (Mus musculus, UniProt Q8BX22 870-940, R900W)
Sequence: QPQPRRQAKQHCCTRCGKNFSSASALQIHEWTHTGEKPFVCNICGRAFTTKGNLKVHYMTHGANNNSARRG
Test: HT-SELEX; high values mean tight binding
Details: protein: recombinant; vector His6-GST; dsDNA, one strand shown
The base-10 logarithm of binding signal, taken with binding signal in fold-change vs cycle 0, is what appears here.

Guide cases for log10(binding signal), answers given:
AGCTAG = -0.09
CTCATA = 0.17
ATGTAG = 0.15

Please give log10(binding signal), item by item, for the list that follows.
1. AGAGCA
2. ACCTTA
3. GCGCGC
4. GTCCCA
5. CCTCCA
6. GGTCAA

Completion:
-0.05
0.20
-1.78
-0.33
-0.22
-0.11

Please give log10(binding signal), item by item, for the list that follows.
1. AGGACG
2. CTATTA
3. AAGATT
4. AATCGG

Completion:
[-0.34, 0.31, 0.32, -0.18]

Please give log10(binding signal), item by item, for the list that follows.
1. ACGCTA
2. GAGTGA
3. AATGCT
4. AAGGCT

Completion:
1. -0.20
2. 0.01
3. 0.08
4. -0.14

====

Target: SALL4 ZFC4 R900W (HT-SELEX) (Mus musculus, UniProt Q8BX22 870-940, R900W)
Sequence: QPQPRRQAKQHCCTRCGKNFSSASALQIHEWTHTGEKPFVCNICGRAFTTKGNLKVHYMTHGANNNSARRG
Assay: HT-SELEX; high values mean tight binding
Settings: protein: recombinant; vector His6-GST; dsDNA, one strand shown
What log10 of binding signal was measured for each of the following?
The base-10 logarithm of binding signal, taken with binding signal in fold-change vs cycle 0, is what appears here.

Guide cases for log10 of binding signal, answers given:
CAACCG = -0.41
GCCTAC = -0.43
GGTTGA = -0.06
CCGAGC = -0.80
TGAACA = 0.15
ATAAAC = 0.31
CCTAGG = -0.23
ATCGAC = -0.20
AATATC = 0.27
AGTTCA = 0.19

Please give log10 of binding signal, item by item, for the list that follows.
1. ACACAT
2. AGCGCA
3. CGTCTC

Completion:
0.12
-0.74
-0.33

Please give log10 of binding signal, item by item, for the list that follows.
1. AGTAAG
2. ACTTTC
3. CCCGCC
4. GATGCC
5. ATCAGG

Completion:
1: 0.24; 2: 0.15; 3: -1.20; 4: -0.47; 5: 0.00

Please give log10 of binding signal, item by item, for the list that follows.
1. CACTCA
2. AAATCG
3. ATACAA
4. ACTGCC
5. CACTAC
6. GATCCC

Completion:
1. -0.03
2. -0.04
3. 0.30
4. -0.48
5. -0.04
6. -0.21
